# Test system: NCI-H460 lung
Field 'call' accepts active, inactive

What is the recorded call for this molecule in the test? CCC(=C/[C@H](C)C/C=C/C(C)=C/[C@@H](C)C(=O)[C@@H](C)[C@H](O)[C@@H](C)CC)/C=C/[C@H]1OC(=O)C=C[C@H]1C
active

Identify the outcome logged in this assay for the molecule shown: CCOC(=O)c1c(C(F)(F)F)n([O-])c2ccc(OC)cc2[n+]1=O
inactive

What is the recorded call for this molecule in the test? Cc1[nH]c(=O)[nH]c(=O)c1CO
inactive

Name the outcome recorded for COc1cc(-c2cc(-c3nc4ccc(Cl)cc4[nH]3)[nH]n2)cc(OC)c1OC in the assay.
inactive

Look up the recorded call for NS(=O)(=O)c1ccc(N2N=C3c4ccccc4CC3C2c2ccc(Cl)cc2)cc1 (stereo not given) in this test.
inactive
